Target: T1, Leishmania major profilin, wild type (Leishmania major, UniProt Q4Q5N1 2-150)
T1 construct: also called LmProfilin; LmProf-WT
T1 sequence: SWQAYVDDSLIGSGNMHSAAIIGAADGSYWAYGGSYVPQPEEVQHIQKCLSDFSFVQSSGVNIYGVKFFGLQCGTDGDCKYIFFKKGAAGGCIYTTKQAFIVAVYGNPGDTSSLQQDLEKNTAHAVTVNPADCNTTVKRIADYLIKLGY
Experiment: other fluorescence titration
Settings: both partners purified
propertyLabel: Kd
Include the unit after the number when you answer.

Qu. What measured Kd goes with PPPPPPPPPP (also called poly-L-proline peptide; poly-proline decamer) [poly-L-proline decamer peptide] ?
Ans. 242 µM
